Data origin, for the record: PubChem BioAssay (NCI)

- System: SK-MEL-28 melanoma
- Assay notes: NCI tumour cell line growth inhibition, 48 h
Result type: TGI

Worked cases, TGI given:
O=c1oc2cc(N=Cc3ccccc3Cl)ccc2c2ccccc12 ... > 100 µM
C#CCn1c(=O)ccn(/C(=C\C(=O)OCC)C(=O)OCC)c1=O ... 25.7 µM
O=C(N/C(=C\c1ccccc1[N+](=O)[O-])c1nc2ccccc2[nH]1)c1ccccc1 ... > 100 µM

Req: Identify the reported TGI for the following entry. O=C1c2ccccc2NC(c2cc(Cl)cc(Cl)c2O)N1CCc1ccccn1 (centres undefined)
Resp: > 100 µM

Req: State, in one line, measured TGI of CC(NC(=O)C(OC(=O)C(C)NC(=O)OC(C)(C)C)C(C)C)C(=O)OC(C(=O)O)C(C)C (centres undefined)
Resp: > 100 µM

Req: In one line, give reported TGI of the entry O=C(c1ccccc1)C(c1ccccc1)C1(O)C(=O)Nc2ccccc21 (centres undefined) .
Resp: > 100 µM

* * *

- Tested on: HOP-62 NSCLC
- Assay notes: NCI tumour cell line growth inhibition, 48 h; in the data active = GI50 below about 0.43 µM; inactive = the rest
Bench note: report the call from active, inactive

Study these solved cases before continuing.
Cc1cc2cccnc2c2ncccc12 ... inactive
COc1ccc(-c2nn(-c3ccc(NC(=O)c4ccc(Cl)c(C(F)(F)F)c4)cc3)cc2-c2ccncc2)cc1Cl ... active
COc1cc(-c2n/c(=C\c3c(O)[nH]c4ccc(Cl)cc34)cc3c2=Nc2ccccc2-3)cc(OC)c1OC ... active
C=C1C(=O)O[C@H]2[C@H]1CC/C(Cn1cc(CNCCc3c[nH]c4ccc(Cl)cc34)nn1)=C\CC[C@@]1(C)O[C@@H]21 ... inactive
N#CC(C#N)=Cc1c(-c2ccccc2)[nH]c2ccccc12 ... inactive

Req: Per the records of this test, what outcome belongs to CCCCN(CCCC)c1ccc(C(=N)c2ccc(N(C)C)cc2)cc1 ?
Resp: inactive

Req: Lab log entry: COc1cc(-c2nn(-c3ccc(NC(=O)Nc4ccc(Cl)c(Cl)c4)cc3)cc2-c2ccncc2)ccc1Cl — outcome as called in the assay?
Resp: inactive

Req: In this assay, the call recorded for O=C(COc1ccc(/C=C2\Oc3ccccc3C2=O)cc1)Nc1nccs1 was what?
Resp: inactive

Req: Assay outcome for O=C(CCCn1c(=O)c2sc3ccccc3c2n2nnc(-c3ccccc3)c12)NCCc1cnc[nH]1 : what was it?
Resp: inactive

* * *

- Tested on: MDA-MB-231 breast
- Assay notes: NCI tumour cell line growth inhibition, 48 h; in the data active = GI50 below about 0.43 µM; inactive = the rest
Thanks in advance; please answer with one of these: class 1 for active, class 0 for inactive

Cc1oc2nc[nH]c(=O)c2c1C(=O)/C=C/c1ccc(Cl)cc1 ... class 0
COc1ccc(Cl)cc1Nc1nc(C(F)(F)F)ccc1C(=O)N/N=C/c1ccc([N+](=O)[O-])cc1 ... class 0
CCN(CC)C(=O)CC1=C(C)/C(=C/c2[nH]c(-c3ccc[nH]3)cc2OC)N=C1C ... class 1
COC1C(O)C(C)OC(OC2C(Oc3cccc4c(O)c5c(=O)oc6ccc(C)c7c(=O)oc(c34)c5c67)OC(C)C3O[C@H](c4ccccc4)OC32)C1O (some centres undefined) ... class 0
Oc1c(C(Nc2cccc3ccccc23)c2ccccc2)ccc2cccnc12 (centres undefined) ... class 0

Req: What did this assay record as the result for CC(=O)Nc1ccc(-c2c3nc(c(-c4cc5ccccc5[n+](C)c4)c4ccc([nH]4)c(-c4ccc(NC(C)=O)cc4)c4nc(c(-c5cc6ccccc6[n+](C)c5)c5ccc2[nH]5)C=C4)C=C3)cc1 ?
Resp: class 0

Req: Each molecule tested received a call. Report the one for O=C(/C=C1\C(=O)N(Cc2ccc([N+](=O)[O-])cc2)c2ccccc21)c1ccc(OCCN2CCCCC2)cc1 .
Resp: class 0

Req: Name the outcome recorded for COc1cc(N2CCN(C(C)C)CC2)ccc1Nc1nc(Nc2cccc3ncccc23)c2cc[nH]c2n1 in the assay.
Resp: class 0

Req: I'd appreciate the recorded outcome for C=C1C(=O)O[C@H]2[C@H]1CC/C(Cn1cc(CNCCc3c[nH]c4ccc(Cl)cc34)nn1)=C\CC[C@@]1(C)O[C@@H]21 from this test.
Resp: class 0

Req: Identify the outcome logged in this assay for the molecule shown: NC(=O)c1cc(-c2ccncc2)cc(-c2ccccc2)c1N
Resp: class 0

Req: Identify the outcome logged in this assay for the molecule shown: O=C(CCCn1c(=O)c2sc3ccccc3c2n2nnc(-c3ccccc3)c12)NCCc1cnc[nH]1
Resp: class 0

Req: For Cc1cc(Cc2cc(C)c(O)c(C)c2)cc(C)c1O , what call appears in the results of this test?
Resp: class 0

Req: Assay outcome for COc1cc(-c2nn(-c3ccc(NC(=O)Nc4ccc(Cl)c(Cl)c4)cc3)cc2-c2ccncc2)ccc1Cl : what was it?
Resp: class 0

Req: Dear colleague, could you share the recorded outcome for Cc1csc(/C=N/NC(=O)c2nnn(-c3ccnc4c(C(F)(F)F)cccc34)c2C)c1 when you have a moment?
Resp: class 0

* * *

- Test system: MCF7 breast
- Assay notes: NCI tumour cell line growth inhibition, 48 h
# TGI listing for each entry below
Dear colleague, please return just the value in µM, with no unit written.

CN1CCN(c2ccc(-c3ccc4ncc(C#N)c(Nc5ccc(F)c(Cl)c5)c4c3)cc2)CC1 ... 14.9

Req: State its TGI for this compound: CCN(CC)CCNc1ccc2ncn3c4c(OC)ccc(OC)c4c(=O)c1c23
Resp: 17

* * *

- Test system: ACHN renal
- Assay notes: NCI tumour cell line growth inhibition, 48 h
Reported TGI values follow for various molecules

CCn1nc(C)c2c1C(=O)NC(C)C(=O)N2 (configuration not stated) ... > 100 µM
COc1ccc(OC)c([N+](=O)[O-])c1-c1nc2sccn2c1/C=N/N=C(N)N ... > 100 µM
CCCCN(CCCC)c1ccc(C(=N)c2ccc(N(C)C)cc2)cc1 ... 2.38 µM

Req: Provide measured TGI value, entry: COC(=O)[C@H]1[C@H]2C[C@@H]3c4[nH]c5cc(OC)ccc5c4CCN3C[C@H]2C[C@@H](OC(=O)c2cc(OC)c(OC)c(OC)c2)[C@@H]1OC
Resp: > 100 µM

* * *

The reader will find reported TGI values listed item by item below.
- System: COLO 205 colon
- Assay notes: NCI tumour cell line growth inhibition, 48 h

For orientation, consider the following solved cases.
COc1ccc(OC)c([N+](=O)[O-])c1-c1nc2sccn2c1/C=N/N=C(N)N ... > 100 µM
Cc1ccc(C2CC(c3ccc([N+](=O)[O-])cc3)=Nc3ccccc3S2)cc1 (centres undefined) ... > 100 µM

Req: For COLO 205 colon, give TGI of the listed compound: C=C(C)[C@@H]1CC[C@]2(C)CC[C@]3(C)[C@H](CC[C@@H]4[C@@]5(C)CC[C@H](OC(=O)c6ccccc6)C(C)(C)[C@@H]5CC[C@]43C)[C@@H]12
Resp: > 100 µM

Req: Jot down TGI (COLO 205 colon) of O=c1[nH]c(=O)n(C2CC(O)C(CO)O2)cc1OCCc1ccccc1 (centres undefined) .
Resp: > 100 µM

* * *

Measured TGI by item
- Tested on: OVCAR-3 ovarian
- Assay notes: NCI tumour cell line growth inhibition, 48 h

O=S1CSCS1 (stereo not drawn) ... > 100 µM
O=C(CCN1CCOCC1)Nc1ccc(F)cc1F ... > 100 µM

Let us move to another entry and its TGI.
Req: Give a short answer stating reported TGI for CC1CC(C)[C@H](O)C([C@H](O)CC2CC(=O)N(C)C(=O)C2)C1 (stereo partly drawn) .
Resp: > 100 µM

* * *

# TGI per entry
- Tested on: HT29 colon
- Assay notes: NCI tumour cell line growth inhibition, 48 h

Examples with their reported TGI follow.
CC(C)(C)[Si](C)(C)OCC1CCC(n2cnc3c(=O)[nH]cnc32)O1 (stereo unspecified) ... > 100 µM
Cn1c(NN)nc(-c2ccc([N+](=O)[O-])cc2)c(C#N)c1=O ... 28.7 µM
COC(=O)c1ccccc1/C=C1/Cc2cccc(C)c2C1=O ... > 100 µM
O=C(/C=C1\C(=O)N(Cc2ccc([N+](=O)[O-])cc2)c2ccccc21)c1ccc(OCCN2CCCCC2)cc1 ... 2.88 µM
Cc1cc(=O)n(-c2ccccc2)c(=O)o1 ... > 100 µM

# ---- query compound ----
Req: Input Cc1nc2ccccc2c(=O)n1/N=C(\N=Nc1cc(Cl)ccc1Cl)c1cccc(-c2ccco2)c1 , output reported TGI.
Resp: > 100 µM

* * *

- Test system: UO-31 renal
- Assay notes: NCI tumour cell line growth inhibition, 48 h
Result type: TGI

# example entries with known answers
CCOC(=O)C1=C(C)NC2SC(=O)/C(=C\c3ccccc3Cl)N2C1c1ccccc1 (stereo not drawn) ... > 100 µM
CN(C)CCNc1ccc2ncnc3c2c1C(=O)c1ccccc1-3 ... 12.9 µM

Now for the compound whose TGI we want.
Req: Using known records, supply TGI for FC(F)(F)c1nc2ccc(SSc3ccc4nc(C(F)(F)F)[nH]c4c3)cc2[nH]1
Resp: > 100 µM
